# EXPERIMENT_DESCRIPTION: soluble fraction after stress (log2 fold change); higher = more stays soluble; pooled small domains, quantitative proteomics
# TEST_CONTEXT: stress: 50 degC
// bucketize soluble fraction (log2): lo: < -0.1; med: ≥ -0.1 and < 0.02; hi: ≥ 0.02

Enquiry: Dear colleague, I would appreciate it if you could identify the bin for HMKEIYIDRGKEALEKELRKRKIPFQEFLSKENTNLLFDTLKIPSHDLEELYLEIGNGKHAASTVVNTVY and reply at your convenience.
Return: hi

Enquiry: Dear colleague, I would appreciate it if you could identify the bin for HMAVRTELLALPAGWHGDASRLSTALAALQGVREAVVIASEGVAYLKVHGHDWDRDGARELLQN and reply at your convenience.
Return: med

Enquiry: Dear colleague, I would appreciate it if you could identify the bin for HMDTHRLNYSDFVAEVQAQRVSKVVIDGYTIVGQRTNGETFETVRPALQDPKLVDDLLQNNVIIEGKQPE and reply at your convenience.
Return: med

Enquiry: Dear colleague, I would appreciate it if you could identify the bin for HMGARHPLPYPFARAHGLLLEADGERSTLWASTNVSPAALSEVMRKYAVDVIEEEPPETLSQRIAAAYAA and reply at your convenience.
Return: hi

Enquiry: Dear colleague, I would appreciate it if you could identify the bin for HMGKASNEVYEVISSKIRTGEWAPGYKLPSEPTLAEEFGVSRATVREALQELISRGRIKREQGRGTYVLH and reply at your convenience.
Return: hi

Enquiry: Dear colleague, I would appreciate it if you could identify the bin for HMDINLGIGPLVKKYRTIKGYSIRELARNINVTASMLSQIERDIVNPSINTLKAISVELGVPMYKFFM and reply at your convenience.
Return: lo

Enquiry: Dear colleague, I would appreciate it if you could identify the bin for HMHQVHKIDGVKYYLHLVEKGNTLYGISKQYNVSVERIEKANTEALSDGLKENQTLLIPVTSDNKKT and reply at your convenience.
Return: hi

Enquiry: Dear colleague, I would appreciate it if you could identify the bin for HMKQVSDTGAIDAAIREVMDANPDKVAEYRSGKDKLFGFFVGQIMRAMAGKAAPVVVNDRLKALLD and reply at your convenience.
Return: hi

Enquiry: Dear colleague, I would appreciate it if you could identify the bin for HMLGSGSKEQQLVILNNILERQVQAFNLQGGQEYPMVTLKNFYNTLSKMIENAGLKNVENYFVNPDVGKQM and reply at your convenience.
Return: lo

Enquiry: Dear colleague, I would appreciate it if you could identify the bin for HMSTVIENVFKNFEVYEIKKGDTFYNIEKRFGVNRQELLVLNPELKEGLKLGMVLKIKEIIP and reply at your convenience.
Return: lo

Enquiry: Dear colleague, I would appreciate it if you could identify the bin for HMTDEYYSYIGKTGTTITVLRPAGIAEVEGERLNVVSEGEFIRKGAAILVKEVEGARILVEEVN and reply at your convenience.
Return: lo

Enquiry: Dear colleague, I would appreciate it if you could identify the bin for HMSDESRAEIVSSAKRLFQQYGYKKTTVSDIAKAMGKVKSAIYYYFPDKESLLRAVIDEEVG and reply at your convenience.
Return: med

Enquiry: Dear colleague, I would appreciate it if you could identify the bin for HMKVSVPDIMDNSSLRQAEAKLRALGFRVTEPEYISGEKDWVYSVTYKGRTLNAGDKVPHEALLTLHVGNG and reply at your convenience.
Return: med

Enquiry: Dear colleague, I would appreciate it if you could identify the bin for HMLTPQEIGSRLKLVRQGLQLKQQEVAEIIGTSQLKISKIEQGATVTTPDFLKLLAFYSQSVSLDILF and reply at your convenience.
Return: lo

Enquiry: Dear colleague, I would appreciate it if you could identify the bin for HMNFTEAEQRFHFLEDQRQRGVLSLEQYRAELAQLRVTDAWGRLWMLQEQTGQWFVFHEGQWRPSQ and reply at your convenience.
Return: lo

Enquiry: Dear colleague, I would appreciate it if you could identify the bin for HMATAEETTPLWARNRLSHAIFGPGSVTGEDERSFEVAFDNGDTLNFSKKSAHLYFTAMSSR and reply at your convenience.
Return: med

Enquiry: Dear colleague, I would appreciate it if you could identify the bin for HMDASKVKIEDLGLSTRTENALVAASIRTAGGLARKSEMDLLSTDGLGEKGITEIKKALSDLGLELK and reply at your convenience.
Return: hi
